Data provenance is the supplement of paper PMC9170038.

system: MS2 coat protein; test: apparent KD of MS2 coat protein; higher = weaker reporter binding; conditions: Eterna round: R107; input ligand: theophylline 20 uM
readoutType: apparent KD of MS2 coat protein (nM)
Kindly provide the numeric value in nM only, without the unit symbol.

Query block: What value of apparent KD of MS2 coat protein has been reported for the following sequence? CGUAGGAUCGUGGAUACCAGUACCGCCCACGACAUGAGGAUCACCCAUGUAGGUAAUCUUUACCCUUGGCAGCCAUUUUUUUCUG [theeternabot_sameState_MS2_Theo_B_14]
Result block: 72.6

Query block: Which value of apparent KD of MS2 coat protein has been reported for ACAUGAACAUGAGGAUCACCCAUGUAUGAUACCAGAAAAGAAGAGUUCCCUUGGCAGCGUACAACACAUGAGGAUCACCCAUGUG [kvcmullin] in the records?
Result block: 26.7

Query block: If you can, please state the reported apparent KD of MS2 coat protein value of AAUAAUAGGUGAUCUUGAGUCGUACCGUAACGAGGACCGGUACGGCCGCCACUCGAACAUGAGGAUCACCCAUGUAUGUAUGAUA [whbob_SS_trypto A_f6] .
Result block: 128

Query block: What apparent KD of MS2 coat protein value was documented for this sequence, UAUCGCGCGGCGGCCGCCACUAAUGGCAGAUCUGUCGACUAACAUGAGGAUCACCCAUGUCUAACUAGGACCGGGCCCAAGUUGU [theeternabot_sameState_MS2_Trp_B_7] ?
Result block: 66.2

Query block: Endpoint output: apparent KD of MS2 coat protein of AGCUCGCAUCCUCUAGCGUCAAAGACGCGUCGAGGACCGGUACGGCCGCCACUCGACUUGAGGAUCACCCAGGUCAAAGCGAGCA [TrypAX 13 #SwitchBubble #AlternativeMS2 #MS2Late #CuTurnoff] . Value?
Result block: 488

* * *

system: MS2 coat protein; experiment: apparent KD of MS2 coat protein; higher = weaker reporter binding; conditions: Eterna round: R107; input ligand: theophylline 20 uM
readoutType: apparent KD of MS2 coat protein (nM)
# value in nM; strip the unit string

Query block: Consider the sequence UGGUACAUGAGGAUCACCCAUGUUCCAGAUACCAGUGUCCCGCUGCACCCUUGGCAGCUGGUGGCACAUGAGGAUCACCCAUGUG [Exclusion Theophylline A GF12] and give its measured apparent KD of MS2 coat protein.
Result block: 16.3

Query block: Please give the measured apparent KD of MS2 coat protein for this sequence: GGAUAGGACACGGCCGCCACUAGCUAGGAUACUAGCAACAUUUCCUCACAUGAGGAUCACCCAUGUAGGACCGGGUGUCCUAUCG
Result block: 145

Query block: I'd like to know its apparent KD of MS2 coat protein. The sequence in question is UACUUGCUGACGGCCGCCACUAGAACAUGAGGAUCACCCAUGUAGGUCCUAGAUUCCUCAUGAACUAGGACCGGGUCAGCAAGAU [(Trp1)-(Ms2)-(T)'-(M)'-(Trp2)_Design15]
Result block: 201

Query block: Could you share which apparent KD of MS2 coat protein value was measured for ACAUGAACAUGAGGAUCACCCAUGUGGGAUACCAGCGUGUAUGAGCGCCCUUGGCAGCUCAUGACAUGAGGAUCACCCAUGUUGG [Exclusion Theophylline A 4] ?
Result block: 242

Query block: Please look up its apparent KD of MS2 coat protein: UAUAUGGUGAUGGAUACCAGCAGAGAAAACGUUUAUCCUAACAUGAGGAUCACCCAUGUAUGCCCUUGGCAGCUGUUGUUAUAUA [8.M]
Result block: 42.3

Query block: # input sequence: AUACAUGAGGAUCACCCAUGUCAUUCAGAAGGAGCGUCAUUAUUGACAGGUAGGUCGCUGAUAAAAUUUUUAUACAUUAUGUUUA [JR_SSArginiA_Sub014] ; wanted: its apparent KD of MS2 coat protein
Result block: 20.9

Query block: Find the recorded apparent KD of MS2 coat protein belonging to GCAUCCUAGUCGGCCGCCACUGCGGAUCCGGUUCUAGAUCCUUAACAUGAGGAUCACCCAUGUAGCAGGACCGGGACUAGGAUGC [(Trp1)-(TM)''-(TM)'-(Ms2)-(Trp2)_Design2] and report it.
Result block: 251

Query block: Which apparent KD of MS2 coat protein value belongs to UUAAUCUUGGAUGAAAACAUUUAAGCAGAAGGAGCGUGAUAAAACACAGGUAGGUCGCUGAAGGGAACAUGAGGAUCACCCAUGU [AstrosSSArgA#15] ?
Result block: 28.8

Query block: Consider the sequence CUCUGGUGCUGAGUGAGUGUCGUGACUGAUACCAGAUGCCUUUACAUCCCUUGGCAGCAGUACAUGAGGAUCACCCAUGUAUUCC [Rireusrama] and give its measured apparent KD of MS2 coat protein.
Result block: 33.5

Query block: Data request, read-out apparent KD of MS2 coat protein, for AGAGAUGAACAUGAGGAUCACCCAUGUAAACGAGGACCGGUACGGCCGCCACUCGUGGGUGUAAUAGAAUAAUAAGAGAAUAAUA [Turkey 1]
Result block: 92

Query block: Requested read-out: apparent KD of MS2 coat protein. Entry: GCAUCCUAGUCGGCCGCCACUGCGAAUAGGUCCUGAGUGAUCUAACAUGAGGAUCACCCAUGUAGCAGGACCGGGACUAGGAUGC [(Trp1)-(TM)''-(TM)'-(Ms2)-(Trp2)_Design5]
Result block: 22.3

Query block: So what's the measured apparent KD of MS2 coat protein for this one? AUAGUCUAGAGUGAUACCAGACAACAUGAGGAUCACCCAUGUAGCAUAUGGUUAUCAUGAGUCCCUUGGCAGCACGCAUGUAUAG [JR_ExcTheophyB_Sub012]
Result block: 19.9
